study_target: HCV polymerase (NS5B) type 1a (Hepatitis C virus genotype 1a, UniProt P26664)
Construct: made in house; host or cells: Escherichia coli (by the 'similar method' of the 1b enzyme)
measurement_protocol: Assay of enzyme (HCV polymerase) inhibitory activity, type 1a enzyme
Assay type: biochemical, HCV type 1a (cloned from the blood of patients)
cond: HCV polymerase inhibitory activity IC50, 1a, type 1a enzyme
pIC50: −log10 of the molar value.
Listed here: items and their measured pIC50.

compound	pIC50
CCNC(=O)c1cnc(N2CCN(S(=O)(=O)c3ccc(OC(F)(F)F)cc3)[C@@H](C(=O)NCc3ccc(OC(F)(F)F)cc3)C2)cn1 [Example 852]	> 7.00
O=C(NCc1ccc(OC(F)(F)F)cc1)[C@H]1CN(c2nc3nc(CO)ncc3s2)CCN1S(=O)(=O)c1ccc(C(F)(F)F)cc1 [Example 1052]	> 7.00
O=C(NCc1ccc(OC(F)F)c(F)c1)[C@H]1CN(c2nc3nc(C(F)(F)F)ncc3s2)CCN1S(=O)(=O)c1ccc(OC(F)(F)F)cc1 [Example 1061]	> 7.00
O=C(NCc1ccc(OC(F)(F)F)cc1)[C@H]1CN(c2cnc3cncnc3n2)CCN1S(=O)(=O)c1ccc(Br)s1 [Example 789]	> 7.00
CCCN1CC=C(CNC(=O)[C@H]2CN(c3cnc4cncnc4n3)CCN2S(=O)(=O)c2ccc(OC(F)(F)F)cc2)CC1 [Example 662]	< 6.00
COc1ccc(CCNC(=O)[C@H]2CN(C(C)=O)CCN2S(=O)(=O)c2ccc(OC(F)(F)F)cc2)cc1 [Example 673]	< 6.00

Problem: Request the reported pIC50 associated with O=C(NCc1ccc(OC(F)(F)F)cc1)[C@H]1CN(c2nc3nn[nH]c(=O)c3s2)CCN1S(=O)(=O)c1ccc(OC(F)(F)F)cc1 [Example 785]
Solution: > 7.00

Problem: // pIC50 lookup, key: CCCc1ccc(CNC(=O)[C@H]2CN(c3nc4c(C(=O)OCC)cncc4s3)CCN2S(=O)(=O)c2ccc(OC(F)(F)F)cc2)cc1 [Example 1083]
Solution: > 7.00

Problem: Endpoint output: pIC50 of O=C(NCc1ccc(OC(F)(F)F)cc1)[C@H]1CN(c2nc3nc(C(F)(F)F)ncc3s2)CCN1S(=O)(=O)c1ccc(OC(F)(F)C(F)F)cc1 [Example 1004] . Value?
Solution: > 7.00

Problem: Would you mind telling me what pIC50 value was observed for O=C(O)c1n[nH]c(=O)c2sc(N3CCN(S(=O)(=O)c4ccc(OC(F)(F)F)cc4)[C@@H](C(=O)NCc4ccc(OC(F)(F)F)cc4)C3)nc12 [Example 874] ?
Solution: > 7.00

* * *

study_target: HCV polymerase (NS5B) type 1a (Hepatitis C virus genotype 1a)
Construct: made in house; host or cells: Escherichia coli (by the 'similar method' of the 1b enzyme)
measurement_protocol: Assay of enzyme (HCV polymerase) inhibitory activity, type 1a enzyme
Format: biochemical, HCV type 1a (cloned from the blood of patients)
cond: HCV polymerase inhibitory activity (IC50), 1a, type 1a enzyme 1.5 μg/ml, 25° C., 60 min
Method: The evaluation of the HCV polymerase inhibitory activity of the compound of the present invention is explained in the following. This polymerase is an enzyme coded for by the non-structural protein region called NS5B on the genome RNA of HCV. i) Preparation of Enzyme (HCV Polymerase) […] The HCV polymerase inhibitory activity (IC50) of the compound of the present invention was calculated from the values of radioactivity of the enzyme reaction with and without the test substance. […]
Structures can show the parent of a compound that is named as a salt.
test_readout: IC50

Use the examples below as a reference point.
compound	IC50
CCC(F)(F)c1ccc(CNC(=O)[C@H]2CN(C(=O)Cc3ccncn3)CCN2S(=O)(=O)c2ccc(OC(F)(F)F)cc2)cc1	< 100 nM
Cc1cc(C2CC2)ccc1CNC(=O)[C@H]1CN(c2nc(C)c(C(=O)O)s2)CCN1S(=O)(=O)c1ccc(OC(F)(F)F)cc1	< 100 nM
CN(C)c1ccc(CNC(=O)[C@H]2CN(C(=O)CN)CCN2S(=O)(=O)c2ccc(C(F)(F)F)cc2)cc1 [Example 262, dihydrochloride]	> 1000 nM
CCCc1ccc(CNC(=O)[C@H]2CN(c3nc(C)ns3)CCN2S(=O)(=O)c2ccc(OC(F)(F)F)cc2)cc1	< 100 nM
CN(C)c1ccc(CNC(=O)C2CN(C(=O)CNCc3ccccc3)CCN2S(=O)(=O)c2ccc(I)cc2)cc1 (stereo not drawn)	> 1000 nM

Problem: Query: IC50; subject: `CCCc1ccc(CNC(=O)[C@H]2CN(c3cnc(C(=O)O)cn3)CCN2S(=O)(=O)c2ccc3c(c2)CCCCC3)cc1`
Solution: < 100 nM

Problem: Tell me the measured IC50 of CC(=O)N1CCN(S(=O)(=O)c2ccc(C(C)C)cc2)C(C(=O)NCc2ccc(-c3cnn(C)c3)cc2)C1 (stereo not drawn) , please.
Solution: > 1000 nM

Problem: So what's the measured IC50 for this one? `CC(=O)N1CCN(S(=O)(=O)c2ccc(-c3ccccc3)cc2)[C@@H](C(=O)NCc2ccc(C(C)C)cc2)C1`
Solution: 100 to 1000 nM

Problem: Find the recorded IC50 belonging to `CC(=O)N1CCN(S(=O)(=O)c2ccc(C(C)C)cc2)[C@@H](C(=O)NCc2ccc(C(C)C)cc2)C1` and report it.
Solution: < 100 nM

Problem: Fill in the blank: the reported IC50 of CC(=O)N1CCN(S(=O)(=O)c2ccc(C(C)(C)C)cc2)C(C(=O)NCc2ccc(C(F)(F)F)cc2)C1 (stereo not drawn) is ____.
Solution: > 1000 nM

Problem: Reported IC50, compound `CC(=O)N1CCN(S(=O)(=O)c2ccc(OC(F)(F)F)cc2)[C@@H](C(=O)NCc2cccc(O)c2)C1` : ____
Solution: > 1000 nM

Problem: Name the recorded IC50 for CC(C)c1ccc(S(=O)(=O)N2CCN(C(=O)CCO)CC2C(=O)NCc2ccc(C(F)(F)F)cc2)cc1 (stereo not drawn) .
Solution: > 1000 nM

Problem: Which IC50 value is on record for `Cc1nc(N2CCN(S(=O)(=O)c3ccc(OC(F)(F)F)cc3)[C@@H](C(=O)NCc3ccc(N4CCC4)cc3)C2)sc1C(=O)O` ?
Solution: 100 to 1000 nM

Problem: Need IC50 of `CCOC(=O)c1nnc(NC(=O)N2CCN(S(=O)(=O)c3ccc(C(F)(F)F)cc3)[C@@H](C(=O)NCc3ccc(C(C)C)cc3)C2)o1` , thanks.
Solution: > 1000 nM

Problem: Returns the measured IC50 for the input compound. Input: `CC(C)c1ccc(CNC(=O)[C@H]2CN(C(=O)Nc3cccc(C(=O)O)c3)CCN2S(=O)(=O)c2ccc(C(F)(F)F)cc2)cc1`
Solution: 100 to 1000 nM

* * *

study_target: HCV polymerase (NS5B) type 1b (Hepatitis C virus genotype 1b, UniProt P26663)
Construct: a region encoding NS5B (J Virol 1991 March, 65(3), 1105-13, 544 amino acids after deletion of 47 amino acids on the C-terminal); 6xHis (C); made in house; host or cells: Escherichia coli
measurement_protocol: Assay of enzyme (HCV polymerase) inhibitory activity, type 1b enzyme
Type: biochemical, HCV BK strain (type 1b)
cond: HCV polymerase inhibitory activity IC50, 1b, type 1b enzyme
test_readout: IC50

compound	reported_measurement
CCC(F)(F)c1ccc(CNC(=O)[C@H]2CN(c3nc4ncncc4s3)CCN2S(=O)(=O)c2ccc(C(F)(F)F)cc2)cc1 [Example 903]	< 100 nM
CCCc1ccc(CNC(=O)[C@H]2CN(c3cnc4c(C(=O)O)cccc4n3)CCN2S(=O)(=O)c2ccc(OC(F)(F)F)cc2)cc1 [Example 817]	< 100 nM

Problem: Please look up its IC50: CCCc1ccc(CNC(=O)[C@H]2CN(c3nc(Cl)c(C(=O)O)s3)CCN2S(=O)(=O)c2ccc(OC(F)(F)F)cc2)cc1 [Example 847]
Solution: < 100 nM

Problem: Tell me the measured IC50 of O=C(NCc1ccc(OC(F)(F)F)cc1)[C@H]1CN(c2nc3cn[nH]c(=O)c3s2)CCN1S(=O)(=O)c1ccc(Br)cc1 [Example 881] , please.
Solution: < 100 nM

Problem: Look at this compound and give its reported IC50. CCCc1ccc(CNC(=O)[C@H]2CN(c3cnc4cncc(Br)c4n3)CCN2S(=O)(=O)c2ccc(CC)cc2)cc1 [Example 813]
Solution: < 100 nM

Problem: Dear colleague, I am looking for the recorded IC50 of the following compound: O=C(NCC1CN(c2ccccc2)C1)[C@H]1CN(c2cnc3cncnc3n2)CCN1S(=O)(=O)c1ccc(OC(F)(F)F)cc1 [Example 867]
Solution: 100 to 1000 nM

* * *

study_target: HCV polymerase (NS5B) type 1b (Hepatitis C virus genotype 1b, UniProt P26663)
Construct: a region encoding NS5B (J Virol 1991 March, 65(3), 1105-13, 544 amino acids after deletion of 47 amino acids on the C-terminal); 6xHis (C); made in house; host or cells: Escherichia coli
measurement_protocol: Assay of enzyme (HCV polymerase) inhibitory activity, type 1b enzyme
Type: biochemical, HCV BK strain (type 1b)
cond: HCV polymerase inhibitory activity (IC50), 1b, type 1b enzyme 0.5 μg/ml, 25° C., 60 min
test_readout: IC50

Consider the worked cases shown below.
compound	reported_measurement
CC(C)c1ccc(S(=O)(=O)N2CCN(C3=NCCO3)CC2C(=O)NCc2ccc(C(F)(F)F)cc2)cc1 (stereo not shown)	> 1000 nM
CC(C)c1ccc(CNC(=O)[C@H]2CN(C3CC(=O)NC3=O)CCN2S(=O)(=O)c2ccc(C(F)(F)F)cc2)cc1 (stereo partly shown)	100 to 1000 nM
CCCc1ccc(CNC(=O)[C@H]2CN(C(=O)Cn3cnnn3)CCN2S(=O)(=O)c2ccc(OC(F)(F)F)cc2)cc1	< 100 nM
CC(=O)N1CCN(S(=O)(=O)c2ccc(C(C)C)cc2)C(C(=O)NCc2ccc(OC(C)C)cc2)C1 (stereo not shown)	> 1000 nM
CC(=O)N1CCN(S(=O)(=O)c2ccc(C(C)C)cc2)C(C(=O)NCc2ccccc2C(F)(F)F)C1 (stereo not shown)	> 1000 nM

Problem: Form field: IC50 recorded for `O=C(NCc1ccc(-c2cccs2)s1)[C@H]1CN(c2cnc3cncnc3n2)CCN1S(=O)(=O)c1ccc(OC(F)(F)F)cc1` with HCV polymerase (NS5B) type 1b (Hepatitis C virus genotype 1b, UniProt P26663) (enter value)
Solution: < 100 nM

Problem: Query IC50 on HCV polymerase (NS5B) type 1b (Hepatitis C virus genotype 1b, UniProt P26663) for `CC(C)c1ccc(CNC(=O)[C@H]2CN(C(=O)Nc3ccc(OCC(=O)O)cc3)CCN2S(=O)(=O)c2ccc(C(F)(F)F)cc2)cc1`
Solution: 100 to 1000 nM
